# TARGET OR SYSTEM: Tyrosine-protein kinase ITK/TSK (Homo sapiens)
# Sequence (Q08881 whole entry): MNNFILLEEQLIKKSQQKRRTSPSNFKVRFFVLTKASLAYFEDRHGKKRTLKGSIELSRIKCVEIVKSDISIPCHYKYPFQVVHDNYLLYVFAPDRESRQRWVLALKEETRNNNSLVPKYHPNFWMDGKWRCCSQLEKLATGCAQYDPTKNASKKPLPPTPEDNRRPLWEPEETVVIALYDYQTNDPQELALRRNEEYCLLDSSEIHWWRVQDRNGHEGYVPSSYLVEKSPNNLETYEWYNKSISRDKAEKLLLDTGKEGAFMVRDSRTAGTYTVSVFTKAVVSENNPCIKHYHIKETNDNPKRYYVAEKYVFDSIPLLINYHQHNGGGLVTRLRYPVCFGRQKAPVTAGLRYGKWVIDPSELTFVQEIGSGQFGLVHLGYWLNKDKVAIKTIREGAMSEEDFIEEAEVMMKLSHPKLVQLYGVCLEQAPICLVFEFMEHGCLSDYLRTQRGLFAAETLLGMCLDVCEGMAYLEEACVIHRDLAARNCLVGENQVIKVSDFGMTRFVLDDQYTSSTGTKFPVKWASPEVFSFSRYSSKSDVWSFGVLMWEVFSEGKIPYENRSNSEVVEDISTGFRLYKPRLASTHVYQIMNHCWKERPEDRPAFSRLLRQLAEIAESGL
Rule: measured Ki below 100 nM gets Satisfied; anything equal to or greater than 100 nM gets Not satisfied.

Some solved cases for reference:
                         structure_notation    label_class
0  CNc1nccc(-c2c[nH]c(=O)c(NC(=O)c3ccc(N4CCCCC4)cc3)c2)n1      Satisfied
1  O=C(Nc1cc(-c2cccc(NC3CC3)n2)c[nH]c1=O)c1ccc(N2CCCCC2)cc1  Not satisfied
2  CNc1cc(F)cc(-c2c[nH]c(=O)c(NC(=O)c3ccc(N4CCC[C@H]4CN4CCCC4)cc3)c2)c1      Satisfied
3  CN(C)c1ccc(C(=O)Nc2cc(-c3ccncc3)c[nH]c2=O)cc1  Not satisfied
4  O=C(Nc1ccc(N2CCCCC2)cc1)c1cc(-c2ccncc2)c[nH]c1=O  Not satisfied

query: Just wondering, is Ki of O=C(Nc1cc(-c2ccncc2)c[nH]c1=O)c1ccc(N2CCCC2)cc1 below 100 nM?
result: Not satisfied

query: Next: CNc1cc(C#N)cc(-c2c[nH]c(=O)c(NC(=O)c3ccc(N4CCC[C@H]4CN4CCCC4)cc3)c2)c1
result: Satisfied

query: Next: O=C(Nc1cc(-c2ccncc2)c[nH]c1=O)c1ccc(C2CCCCC2)cc1
result: Not satisfied

query: Next: Cc1cccc(C(=O)Nc2cc(-c3ccncc3)c[nH]c2=O)c1
result: Not satisfied

###

# TARGET OR SYSTEM: UniProt:P00519
# Sequence (P00519 whole entry): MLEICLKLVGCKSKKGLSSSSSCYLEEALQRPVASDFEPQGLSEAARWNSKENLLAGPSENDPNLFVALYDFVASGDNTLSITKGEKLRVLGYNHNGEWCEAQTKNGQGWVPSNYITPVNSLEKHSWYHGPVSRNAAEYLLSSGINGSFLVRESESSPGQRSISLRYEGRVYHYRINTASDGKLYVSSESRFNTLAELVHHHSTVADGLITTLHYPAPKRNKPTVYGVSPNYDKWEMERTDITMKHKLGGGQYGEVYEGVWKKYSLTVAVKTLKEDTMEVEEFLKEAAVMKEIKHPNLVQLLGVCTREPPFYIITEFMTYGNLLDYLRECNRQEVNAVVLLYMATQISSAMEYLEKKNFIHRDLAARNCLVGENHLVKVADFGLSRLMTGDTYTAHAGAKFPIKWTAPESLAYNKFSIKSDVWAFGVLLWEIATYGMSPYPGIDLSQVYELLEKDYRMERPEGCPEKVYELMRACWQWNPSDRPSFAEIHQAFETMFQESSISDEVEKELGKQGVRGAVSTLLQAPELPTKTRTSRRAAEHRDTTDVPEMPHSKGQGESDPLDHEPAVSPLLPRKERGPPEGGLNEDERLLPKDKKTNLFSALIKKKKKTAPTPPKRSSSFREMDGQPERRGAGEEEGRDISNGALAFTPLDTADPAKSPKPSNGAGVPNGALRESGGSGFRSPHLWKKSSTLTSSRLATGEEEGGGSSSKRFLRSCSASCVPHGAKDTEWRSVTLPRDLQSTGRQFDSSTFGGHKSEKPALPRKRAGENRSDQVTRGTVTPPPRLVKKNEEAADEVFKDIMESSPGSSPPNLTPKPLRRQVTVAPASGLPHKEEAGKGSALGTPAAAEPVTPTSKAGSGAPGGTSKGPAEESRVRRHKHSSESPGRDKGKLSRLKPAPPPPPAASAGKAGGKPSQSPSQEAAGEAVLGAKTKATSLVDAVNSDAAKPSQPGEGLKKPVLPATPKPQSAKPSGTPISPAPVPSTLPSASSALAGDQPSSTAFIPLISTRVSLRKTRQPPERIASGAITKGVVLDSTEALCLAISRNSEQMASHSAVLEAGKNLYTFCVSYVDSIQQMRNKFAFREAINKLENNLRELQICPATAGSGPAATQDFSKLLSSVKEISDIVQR
pKi: −log10 of the molar value.
VALUE KIND: pKi

query: Reported pKi for CNc1cncc(-c2c[nH]c(=O)c(NC(=O)c3ccc(N4CCC[C@H]4CN4CCCC4)cc3)c2)n1 : what is it?
result: < 6.00

###

# TARGET OR SYSTEM: Tyrosine-protein kinase Lyn (Homo sapiens)
# Sequence (P07948 whole entry): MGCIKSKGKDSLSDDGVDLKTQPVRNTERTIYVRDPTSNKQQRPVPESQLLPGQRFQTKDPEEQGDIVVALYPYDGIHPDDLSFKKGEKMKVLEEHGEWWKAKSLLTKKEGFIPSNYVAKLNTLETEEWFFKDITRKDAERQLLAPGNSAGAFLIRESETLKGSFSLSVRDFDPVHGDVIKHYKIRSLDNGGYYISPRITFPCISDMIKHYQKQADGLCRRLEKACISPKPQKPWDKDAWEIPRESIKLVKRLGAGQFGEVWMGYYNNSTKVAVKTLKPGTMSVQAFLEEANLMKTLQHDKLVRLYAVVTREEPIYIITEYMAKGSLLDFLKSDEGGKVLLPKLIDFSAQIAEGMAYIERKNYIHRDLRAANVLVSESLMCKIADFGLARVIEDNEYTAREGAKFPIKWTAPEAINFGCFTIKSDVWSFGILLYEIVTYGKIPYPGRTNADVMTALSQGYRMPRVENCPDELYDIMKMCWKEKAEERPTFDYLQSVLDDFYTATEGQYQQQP
pKi: −log10 of the molar value.
VALUE KIND: pKi

query: Reported pKi for CNc1cncc(-c2c[nH]c(=O)c(NC(=O)c3ccc(N4CCC[C@H]4CN4CCCC4)cc3)c2)n1 : what is it?
result: < 6.00

###

# TARGET OR SYSTEM: Tyrosine-protein kinase HCK (Homo sapiens)
# Sequence (P08631 whole entry): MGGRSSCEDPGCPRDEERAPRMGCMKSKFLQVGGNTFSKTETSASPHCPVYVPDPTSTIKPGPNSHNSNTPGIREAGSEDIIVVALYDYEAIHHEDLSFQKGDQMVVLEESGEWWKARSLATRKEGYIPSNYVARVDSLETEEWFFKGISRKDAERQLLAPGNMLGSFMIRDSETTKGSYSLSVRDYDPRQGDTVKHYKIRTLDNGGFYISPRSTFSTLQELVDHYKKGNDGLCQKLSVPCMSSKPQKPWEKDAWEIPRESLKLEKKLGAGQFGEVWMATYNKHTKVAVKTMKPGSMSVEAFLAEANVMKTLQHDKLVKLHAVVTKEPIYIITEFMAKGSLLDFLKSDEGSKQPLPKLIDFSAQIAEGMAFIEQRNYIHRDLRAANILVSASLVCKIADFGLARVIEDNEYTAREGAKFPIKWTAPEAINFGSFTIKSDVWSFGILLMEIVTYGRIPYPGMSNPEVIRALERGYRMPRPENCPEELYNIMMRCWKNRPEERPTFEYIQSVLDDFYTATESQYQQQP
VALUE KIND: Ki

query: Reported Ki for CNc1cncc(-c2c[nH]c(=O)c(NC(=O)c3ccc(N4CCC[C@H]4CN4CCCC4)cc3)c2)n1 : what is it?
result: > 1000 nM

###

Consider the following molecules and their measured pKi readings.
# TARGET OR SYSTEM: Proto-oncogene tyrosine-protein kinase Src (Homo sapiens, UniProt P12931)
# Sequence (P12931 2-536 limits assumed): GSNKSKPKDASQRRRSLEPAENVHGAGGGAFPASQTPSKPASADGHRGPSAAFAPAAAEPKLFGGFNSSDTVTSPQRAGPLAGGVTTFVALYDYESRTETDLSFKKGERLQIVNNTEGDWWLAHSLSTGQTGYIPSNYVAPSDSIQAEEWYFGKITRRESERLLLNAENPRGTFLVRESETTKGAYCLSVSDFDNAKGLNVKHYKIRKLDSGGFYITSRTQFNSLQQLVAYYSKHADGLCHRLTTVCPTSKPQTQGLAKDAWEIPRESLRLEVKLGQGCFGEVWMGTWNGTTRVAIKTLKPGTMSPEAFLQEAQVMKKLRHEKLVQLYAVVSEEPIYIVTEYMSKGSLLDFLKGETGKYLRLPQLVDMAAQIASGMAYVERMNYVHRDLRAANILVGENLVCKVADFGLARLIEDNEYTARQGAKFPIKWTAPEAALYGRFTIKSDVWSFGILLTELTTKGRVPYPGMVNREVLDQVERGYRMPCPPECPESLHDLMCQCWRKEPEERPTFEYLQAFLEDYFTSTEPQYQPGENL
# TEST METHOD NOTES: Inhibition of Src after 10 mins by radiometric phosphate incorporation assay
Recall that pKi is obtained by taking minus log10 of the concentration measured in molar.

query: Reported pKi for CNc1cc(F)cc(-c2c[nH]c(=O)c(NC(=O)c3ccc(N4CCC[C@H]4CN4CCCC4)cc3)c2)c1 : what is it?
result: 6.52

query: Next: CNc1cncc(-c2c[nH]c(=O)c(NC(=O)c3ccc(N4CCC[C@H]4CN4CCCC4)cc3)c2)c1
result: 6.55

query: Next: CNc1cccc(-c2c[nH]c(=O)c(NC(=O)c3ccc(N4CCCCC4)cc3)c2)c1
result: 6.66

query: Next: CNc1cc(C#N)cc(-c2c[nH]c(=O)c(NC(=O)c3ccc(N4CCC[C@H]4CN4CCCC4)cc3)c2)c1
result: 6.32

query: Next: CN(C)c1ccc(C(=O)Nc2cc(-c3ccncc3)c[nH]c2=O)cc1
result: 5.55

query: Next: CNc1cncc(-c2c[nH]c(=O)c(NC(=O)c3ccc(N4CCC[C@H]4CN4CCCC4)cc3)c2)n1
result: 6.92

query: Next: CC(C)(C)c1ccc(C(=O)Nc2cc(-c3ccncc3)c[nH]c2=O)cc1
result: 5.88

query: Next: O=C(Nc1cc(-c2ccncc2)c[nH]c1=O)c1ccc(N2CCCCC2)cc1
result: 5.74

Reference source: ChEMBL document CHEMBL1765075
